Tested on: K-562 leukemia
Experiment: NCI-60 one-dose screen, 48 h
Details: 10 µM unless noted
This is part of a sample that, as a whole, favours compounds with a hit. Of some 83,000 tested, about 20% had one in any assay. Activity calls are given as the source filed them. The calls were made as follows: active = growth percent below 10; inactive = the rest.
Tick one outcome: active, inactive

For orientation, consider the following solved cases.
smi	target_system	qualitative_label
N=C(N)c1ccc(-c2ccc(-c3ccccc3)s2)cc1	K-562 leukemia	active
CCN(CC)CCCN1C(=O)c2c(c(C)c3c(oc4ccc(O)cc43)c2C)C1=O	K-562 leukemia	active
Nc1ccc(-c2csc(-n3[nH]c(=O)ccc3=O)n2)cc1	K-562 leukemia	inactive
O=S(=O)(NCCCNc1nccc(-c2c(-c3cccc(F)c3)nc3occn23)n1)c1ccc(F)cc1	K-562 leukemia	inactive
O=C1NC(=O)/C(=C/c2c(-c3ccccc3)nc3sc(COc4ccccc4)nn23)S1	K-562 leukemia	inactive

We now examine a further compound.
Would you mind telling me which call this test gave CN(C)c1ccc(/C=C(\C#N)c2cc3ccccc3[nH]2)cc1 ?
inactive

Hey, just so you know, these numbers are from PubChem BioAssay (NCI).
